test system: PC3 cells; assay: ATP viability assay; format: cell-based; details: Homo sapiens, PC-3, 72 h, read-out: approximate IC50, cell viability
pIC50: −log10 of the molar value.
metricName: pIC50

Prompt: Would you kindly share the measured pIC50 for CN1CCC(CNc2ccc3ncc(-c4cccc(OC(F)(F)F)c4)n3n2)CC1 [SGI-1776] ?
Response: ~5.52
